Condition: Ethanol; heating temp. 40 °C, obs. temp. 40 °C
Measurement Type: Approximate Solubility (mg/mL) in Excipient: Ethanol

>  <Smiles Record>
C=C1CC[C@@]2(O)C3Cc4ccc(OC(=O)CCCCCCC/C=C\CCCCCCCC)c5c4[C@@]2(CCN3CC2CC2)[C@H]1O5

>  <Value Observed>
20 to 30 mg/mL

$$$$
>  <Smiles Record>
C=C1CC[C@@]2(O)C3Cc4ccc(OC(=O)CCCCCCCCCCC/C=C\CCCCCCCC)c5c4[C@@]2(CCN3CC2CC2)[C@H]1O5

>  <Value Observed>
>214 mg/mL

$$$$

Entry `C=C1CC[C@@]2(O)C3Cc4ccc(OC(=O)CCCCCCCCCCCCCCCCCCCCC)c5c4[C@@]2(CCN3CC2CC2)[C@H]1O5` needs its Approximate Solubility (mg/mL) in Excipient: Ethanol filled in; supply it. 69 to 83 mg/mL

Entry `C=C1CC[C@@]2(O)C3Cc4ccc(OC(=O)CCCCCCCCCCCCCCCCCCC)c5c4[C@@]2(CCN3CC2CC2)[C@H]1O5` needs its Approximate Solubility (mg/mL) in Excipient: Ethanol filled in; supply it. <25 mg/mL

Entry `CCCCCCCC/C=C\CCCCCCCC(=O)Oc1ccc2c3c1O[C@H]1C(=O)CC[C@@]4(O)C(C2)N(CC2CC2)CC[C@]314` needs its Approximate Solubility (mg/mL) in Excipient: Ethanol filled in; supply it. >201 mg/mL

Entry `C=C1CC[C@@]2(O)C3Cc4ccc(OC(=O)CCCCCCCCCCCCCCCCC)c5c4[C@@]2(CCN3CC2CC2)[C@H]1O5` needs its Approximate Solubility (mg/mL) in Excipient: Ethanol filled in; supply it. 65 to 75 mg/mL

* * *

Procedure Details: Plasma stability assay, human plasma
Type: in vitro ADME
Condition: 2 μM, 37° C., 120 min (head)
Measurement Type: % remaining at time point (%)
A number alone suffices; assume %.

>  <Molecule>
CCCCCCCCCCCCCCCC(=O)OC1CCCn2c1nc(C)c(CCN1CCC(c3noc4cc(F)ccc34)CC1)c2=O (centres unmarked) [Paliperidone palmitate, reference compound]

>  <% remaining at time point (%)>
97.6

$$$$
>  <Molecule>
C=C1CC[C@@]2(O)C3Cc4ccc(OC(=O)OCCCCCCCCCCCC)c5c4[C@@]2(CCN3CC2CC2)[C@H]1O5

>  <% remaining at time point (%)>
102

$$$$
>  <Molecule>
C=C1CC[C@@]2(O)C3Cc4ccc(OC(=O)CCCCCCC/C=C/CCCCCCCC)c5c4[C@@]2(CCN3CC2CC2)[C@H]1O5

>  <% remaining at time point (%)>
82.5

$$$$
>  <Molecule>
CCCCCCCCCCCC(=O)OCN1C(=O)CCc2ccc(OCCCCN3CCN(c4cccc(Cl)c4Cl)CC3)cc21 [Aripiprazole Lauroxil, reference compound]

>  <% remaining at time point (%)>
80

$$$$

Could you now consider this next molecule?
Entry `C=C1CC[C@@]2(O)C3Cc4ccc(OCOC(=O)OCCCCCCCCCCCC)c5c4[C@@]2(CCN3CC2CC2)[C@H]1O5` needs its % remaining at time point filled in; supply it. 102.3

* * *

Procedure Details: Plasma stability assay, human plasma
Format: in vitro ADME
Condition: 2 μM, 37° C., 480 min (head)
Measurement Type: % remaining at time point (%)
A number alone suffices; assume %.

Guide cases for % remaining at time point, answers given:
>  <Compound>
C=C1CC[C@@]2(O)C3Cc4ccc(OC(=O)OCCCCCCCCCCCC)c5c4[C@@]2(CCN3CC2CC2)[C@H]1O5

>  <Display Unit>
%

>  <% remaining at time point>
109.8

$$$$
>  <Compound>
CCCCCCCCCCCC(=O)OCN1C(=O)CCc2ccc(OCCCCN3CCN(c4cccc(Cl)c4Cl)CC3)cc21 [Aripiprazole Lauroxil, reference compound]

>  <Display Unit>
%

>  <% remaining at time point>
73.2

$$$$
>  <Compound>
CCCCCCCCCCCCCCCC(=O)OC1CCCn2c1nc(C)c(CCN1CCC(c3noc4cc(F)ccc34)CC1)c2=O (centres unmarked) [Paliperidone palmitate, reference compound]

>  <Display Unit>
%

>  <% remaining at time point>
109.1

$$$$

Entry `C=C1CC[C@@]2(O)C3Cc4ccc(OCOC(=O)OCCCCCCCCCCCC)c5c4[C@@]2(CCN3CC2CC2)[C@H]1O5` needs its % remaining at time point filled in; supply it. 105.3

Entry `C=C1CC[C@@]2(O)C3Cc4ccc(OC(=O)CCCCCCC/C=C/CCCCCCCC)c5c4[C@@]2(CCN3CC2CC2)[C@H]1O5` needs its % remaining at time point filled in; supply it. 107.1
